- Tested on: SNB-75 CNS
- METHOD NOTES: NCI-60 one-dose screen, 48 h (100 = growth as untreated, 0 = no growth, -100 = all killed)
- EXPERIMENTAL CONTEXT: 10 µM unless noted
This is part of a sample that, as a whole, favours compounds with a hit. Of some 83,000 tested, about 20% had one in any assay.
If the reported growth equals or exceeds 70%, assign Met. If not, assign Not met.

COMPOUND: C/C(=N\Nc1cc(C)c2cc(C)ccc2n1)c1ccccn1
TARGET UNDER TEST: SNB-75 CNS
CLASS ASSIGNMENT: Not met
--
COMPOUND: N#Cc1c(-c2ccc(O)cc2)c2c(N)nn(-c3ccccc3)c2[nH]c1=O
TARGET UNDER TEST: SNB-75 CNS
CLASS ASSIGNMENT: Met
--
COMPOUND: CN1CCN(c2ccc3nc(-c4[nH]ncc4Nc4ncnc5[nH]ccc45)[nH]c3c2)CC1
TARGET UNDER TEST: SNB-75 CNS
CLASS ASSIGNMENT: Not met
--
COMPOUND: O=C(NC(Cc1cn(Cc2ccccc2)cn1)C(=O)O)OCC1c2ccccc2-c2ccccc21 (stereo not drawn)
TARGET UNDER TEST: SNB-75 CNS
CLASS ASSIGNMENT: Met
--
COMPOUND: COc1ccc(-c2cc(/C=C/C(=O)c3ccc(OC)c(OC)c3)[nH]n2)cc1
TARGET UNDER TEST: SNB-75 CNS
CLASS ASSIGNMENT: Not met
--
COMPOUND: CCN1CCN(c2nc(C)cc(N(CCCNc3ccnc4cc(Cl)ccc34)Cc3ccco3)n2)CC1
TARGET UNDER TEST: SNB-75 CNS
CLASS ASSIGNMENT: Not met
--
COMPOUND: COc1ccc(/C(=C\c2ccc3c(c2)OCO3)C(=O)Nc2nc3ccccc3s2)cc1OC
TARGET UNDER TEST: SNB-75 CNS
CLASS ASSIGNMENT: Met
--
COMPOUND: Cc1cc(N2CCOCC2)nc(N(CCCNc2ccnc3cc(Cl)ccc23)Cc2ccco2)n1
TARGET UNDER TEST: SNB-75 CNS
CLASS ASSIGNMENT: Not met
--
COMPOUND: C/C(=N\Nc1cc(C)c2ccccc2n1)c1ccccn1
TARGET UNDER TEST: SNB-75 CNS
CLASS ASSIGNMENT: Not met
--
COMPOUND: Fc1ccc2nc(-c3cc(-c4ccc5c(c4)OCO5)n[nH]3)[nH]c2c1
TARGET UNDER TEST: SNB-75 CNS
CLASS ASSIGNMENT: Not met
--
COMPOUND: N#C/C(=C\c1ccc(-c2ccc(Br)cc2)o1)c1nc(-c2ccco2)cs1
TARGET UNDER TEST: SNB-75 CNS
CLASS ASSIGNMENT: Met
--
COMPOUND: N#Cc1cnc2cc(OC[C@@H](O)CO)c(NC(=O)C3CCCC3)cc2c1Nc1ccc(OCc2cccc(F)c2)c(Cl)c1
TARGET UNDER TEST: SNB-75 CNS
CLASS ASSIGNMENT: Not met
--
COMPOUND: CC1(C)C(=O)/C(=C\c2ccccn2)C[C@]2(C)[C@H]3CC[C@@H]4[C@@H](C(=O)/C=C/c5ccccn5)CC[C@@]4(C)[C@]3(C)CC[C@@H]12
TARGET UNDER TEST: SNB-75 CNS
CLASS ASSIGNMENT: Not met

---

- Test system: RXF 393 renal
- METHOD NOTES: NCI-60 one-dose screen, 48 h (100 = growth as untreated, 0 = no growth, -100 = all killed)
- EXPERIMENTAL CONTEXT: 10 µM unless noted
- Protocol: Cells are grown in 96 well plates and exposed to the test compound for 48 hours. Compounds are tested at a single concentration, which is 10^-5 M for most compounds. The reported endpoint is percent growth (GI% or GIPRCNT), where numbers from 0 - 100% represent growth inhibition, and numbers from -100% - 0 represent cell death. For example, a value of 40 represents 60% growth inhibition. A value of 0 means no net growth occurred over the course of the experiment. […]
This is part of a sample that, as a whole, favours compounds with a hit. Of some 83,000 tested, about 20% had one in any assay. Calls of active or inactive are those of the source. Rule for the calls: active = growth percent below 10; inactive = the rest.
The following compounds are listed with their measured growth values.
MEASUREMENT KIND: growth

COMPOUND: COc1ccc2c(c1)c(-c1nc(-c3c[nH]c4ncccc34)cs1)cn2CCCN1CCCCC1
TARGET UNDER TEST: RXF 393 renal
OBSERVED: 35.9% (inactive)
//
COMPOUND: COC1=C(Br)C(=O)C(OC)=C(Br)C1=O
TARGET UNDER TEST: RXF 393 renal
OBSERVED: 119% (inactive)
//
COMPOUND: Cc1csc(-c2ccc3c(c2)COC3(CCCN(C)C)c2ccc(F)cc2)c1 (centres undefined)
TARGET UNDER TEST: RXF 393 renal
OBSERVED: 43.5% (inactive)
//
COMPOUND: Cc1ccc(S(=O)(=O)Nc2ccc(-c3cc(-c4cccc(F)c4)c(C#N)c(N)n3)cc2)cc1
TARGET UNDER TEST: RXF 393 renal
OBSERVED: -18.2% (active)

---

The following compounds are listed with their measured growth values.
- Tested on: NCI-H460 lung
- METHOD NOTES: NCI-60 one-dose screen, 48 h (100 = growth as untreated, 0 = no growth, -100 = all killed)
- EXPERIMENTAL CONTEXT: 10 µM unless noted
The panel holds about 83,000 compounds, 20% with a hit somewhere; the sample as a whole holds those more often.
MEASUREMENT KIND: growth (%)

ITEM SMILES: Cc1ccccc1-c1nc(C(Cl)Cl)nc2cc(-c3ccccc3)nn12
TARGET UNDER TEST: NCI-H460 lung
MEASUREMENT KIND: growth
OBSERVED: 81.5
//
ITEM SMILES: O=Cc1nc2ccccc2[nH]1
TARGET UNDER TEST: NCI-H460 lung
MEASUREMENT KIND: growth
OBSERVED: 109
//
ITEM SMILES: COc1cccc(NC(=O)c2sc3nc4c(cc3c2N)C(=O)CCC4)c1
TARGET UNDER TEST: NCI-H460 lung
MEASUREMENT KIND: growth
OBSERVED: 1.73
//
ITEM SMILES: Cc1ccc(/C=C(\C#N)c2cc3ccccc3n2C)cc1
TARGET UNDER TEST: NCI-H460 lung
MEASUREMENT KIND: growth
OBSERVED: 11
//
ITEM SMILES: CCN1CCN(C(=O)[C@]23CC[C@@H](C)[C@H](C)[C@H]2C2=CC[C@@H]4[C@@]5(C)C/C(=C/c6cccc(OC)c6OC)C(=O)C(C)(C)[C@@H]5CC[C@@]4(C)[C@]2(C)CC3)CC1
TARGET UNDER TEST: NCI-H460 lung
MEASUREMENT KIND: growth
OBSERVED: 20.1
//
ITEM SMILES: Cc1cc(N(CCCNc2ccnc3cc(Cl)ccc23)Cc2ccco2)nc(N2CCOCC2)n1
TARGET UNDER TEST: NCI-H460 lung
MEASUREMENT KIND: growth
OBSERVED: 64.8
//
ITEM SMILES: N#C/C(=C\c1ccc(-c2ccccc2)o1)c1nc(-c2ccco2)cs1
TARGET UNDER TEST: NCI-H460 lung
MEASUREMENT KIND: growth
OBSERVED: 85
//
ITEM SMILES: COc1ccc(/C=C(\C#N)c2cc3ccccc3n2S(C)(=O)=O)cc1
TARGET UNDER TEST: NCI-H460 lung
MEASUREMENT KIND: growth
OBSERVED: 105
//
ITEM SMILES: N#Cc1cnc2cc(OC[C@@H](O)CO)c(NC(=O)CC3CSSC3)cc2c1Nc1ccc(OCc2cccc(F)c2)c(Cl)c1
TARGET UNDER TEST: NCI-H460 lung
MEASUREMENT KIND: growth
OBSERVED: -66.9
//
ITEM SMILES: Cc1cc2nc3c4cc(N)ccc4n(CCN(C)C)c3nc2cc1C
TARGET UNDER TEST: NCI-H460 lung
MEASUREMENT KIND: growth
OBSERVED: 0.661
//
ITEM SMILES: COc1cc2[nH]c(C(=O)c3cc(OC)c(OC)c(OC)c3)c(N)c2cc1C#CCO
TARGET UNDER TEST: NCI-H460 lung
MEASUREMENT KIND: growth
OBSERVED: 7.9
//
ITEM SMILES: O=S(=O)(NCCNc1cc(-c2cn(-c3ccccc3)nc2-c2cccc(O)c2)ccn1)c1ccc(F)cc1
TARGET UNDER TEST: NCI-H460 lung
MEASUREMENT KIND: growth
OBSERVED: 22.9
//
ITEM SMILES: CCCCN1CCCCn2c1nc1c2c(=O)n(C)c(=O)n1C
TARGET UNDER TEST: NCI-H460 lung
MEASUREMENT KIND: growth
OBSERVED: 101
//
ITEM SMILES: Nc1c(C(=O)Nc2c(Cl)cccc2Cl)sc2nc3c(cc12)CCCC3
TARGET UNDER TEST: NCI-H460 lung
MEASUREMENT KIND: growth
OBSERVED: 66.4
